Protein target, amino acids: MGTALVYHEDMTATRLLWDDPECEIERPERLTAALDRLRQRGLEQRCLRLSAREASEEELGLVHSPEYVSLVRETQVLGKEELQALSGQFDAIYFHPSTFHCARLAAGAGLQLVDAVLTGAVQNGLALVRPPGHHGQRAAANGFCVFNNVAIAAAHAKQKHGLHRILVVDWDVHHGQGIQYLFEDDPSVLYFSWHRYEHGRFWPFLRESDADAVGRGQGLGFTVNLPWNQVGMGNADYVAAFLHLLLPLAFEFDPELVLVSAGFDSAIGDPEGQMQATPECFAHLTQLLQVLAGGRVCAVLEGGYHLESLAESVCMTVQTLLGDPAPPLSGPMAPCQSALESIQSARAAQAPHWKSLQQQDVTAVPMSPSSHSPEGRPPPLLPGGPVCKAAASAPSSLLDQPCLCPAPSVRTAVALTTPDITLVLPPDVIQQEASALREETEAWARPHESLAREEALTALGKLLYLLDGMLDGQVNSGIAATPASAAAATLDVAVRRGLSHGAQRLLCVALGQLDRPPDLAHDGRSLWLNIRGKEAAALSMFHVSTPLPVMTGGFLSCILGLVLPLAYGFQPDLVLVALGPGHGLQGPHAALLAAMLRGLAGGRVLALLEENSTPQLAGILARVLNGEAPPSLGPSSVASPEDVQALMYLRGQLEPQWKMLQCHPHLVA
reported_endpoint: pIC50
As a rule, pIC50 stands for the negative log10 of the concentration, concentration in M.

Query: I'd like to know its pIC50. The compound in question is Cc1cnc(Nc2ccc(OCCCCCCC(=O)NO)c(F)c2)nc1Nc1cccc(S(=O)(=O)NC(C)(C)C)c1
Response: 6.90
